System: T. cruzi (Dm28c-Luc) trypomastigotes
Protocol Description: microbe, parasite or virus in culture
Assay type: cell-based, Trypanosoma cruzi
Assay Conditions: Trypanosoma cruzi; Dm28c-Luc, 24 h, mean ± SD; read-out: Trypanocidal Activity Trypomastigotes IC90
Provide the reported IC90 of each item.
Numbers only, in µM.

The following compounds have reported results that may help.
| Compound | Scale Unit | Value Measured |
| --- | --- | --- |
| COc1ccc(-n2cc(C3=NCCS3)cn2)cc1 [Compound 2k] | µM | 36.1 |
| Clc1ccc(-n2cc(C3=NCCS3)cn2)cc1 [Compound 2f] | µM | 13.3 |
| Brc1ccc(-n2cc(C3=NCCS3)cn2)cc1 [Compound 2i] | µM | 13.3 |
| c1ccc(-n2cc(C3=NCCS3)cn2)cc1 [Compound 2a] | µM | 10.4 |

As a next step, examine the compound that follows.
Exercise: What value of IC90 has been reported for the following compound? Clc1ccc(-n2cc(C3=NCCS3)cn2)c(Cl)c1 [Compound 2c]
Key: 2.8

###

Kindly supply the reported Intracellular Amastigotes SI (CC50 of Vero cells/IC50) values for the records listed here.
Tested on: T. cruzi (Dm28c-Luc) intracellular amastigotes
Protocol Description: Trypanocidal activity against intracellular amastigotes in infected Vero cell monolayers
Format: cell-based, Trypanosoma cruzi
Assay Conditions: selectivity index vs Vero cells
Numbers only.

| Compound | Value Measured |
| --- | --- |
| Nc1c(C2=NCCS2)cnn1-c1ccc(F)cc1 [Compound 1g] | 5.6 |
| Clc1cccc(-n2cc(C3=NCCS3)cn2)c1 [Compound 2b] | 9.4 |
| Nc1c(C2=NCCS2)cnn1-c1cc(Cl)cc(Cl)c1 [Compound 1d] | 6.6 |

Below are 4 compounds. Give each one its Intracellular Amastigotes SI (CC50 of Vero cells/IC50).
1. Fc1ccc(-n2cc(C3=NCCS3)cn2)cc1 [Compound 2g]
2. Clc1cccc(-n2cc(C3=NCCS3)cn2)c1Cl [Compound 2l]
3. c1ccc(-n2cc(C3=NCCS3)cn2)cc1 [Compound 2a]
4. COc1ccc(-n2cc(C3=NCCS3)cn2)cc1 [Compound 2k]

Key:
4.18
3.5
17.4
4.9

// input: 2 compounds below; output: Intracellular Amastigotes SI (CC50 of Vero cells/IC50) for each
1. Clc1ccc(-n2cc(C3=NCCS3)cn2)cc1 [Compound 2f]
2. Fc1cccc(-n2cc(C3=NCCS3)cn2)c1 [Compound 2h]

Key:
[12.0, 4.19]

###

Test system: T. cruzi (Dm28c-Luc) intracellular amastigotes
Protocol Description: Trypanocidal activity against intracellular amastigotes in infected Vero cell monolayers
Assay type: cell-based, Trypanosoma cruzi
Assay Conditions: selectivity index vs Vero cells
Please respond with reported Intracellular Amastigotes SI (CC50 of Vero cells/IC50) for every item in the list.
Give bare numbers.

Please state Intracellular Amastigotes SI (CC50 of Vero cells/IC50) for every molecule in the list that follows.
1. Brc1cccc(-n2cc(C3=NCCS3)cn2)c1
2. Nc1c(C2=NCCS2)cnn1-c1ccccc1
3. Brc1ccc(-n2cc(C3=NCCS3)cn2)cc1
4. Nc1c(C2=NCCS2)cnn1-c1cccc(Cl)c1

Key:
1: 7.9; 2: 3.1; 3: 31.8; 4: 5.2

###

For each of the molecules below, state its CC50 at 72 h.
Protocol Description: Cytotoxicity in vitro assay (CellTiter-Glo)
Format: cell-based
Assay Conditions: African green monkey, Vero cells, mean ± SD

Field: CC50 at 72 h. Fill in for each record below.
1. Nc1c(C2=NCCS2)cnn1-c1cccc(Br)c1
2. c1ccc(-n2cc(C3=NCCS3)cn2)cc1
3. Brc1cccc(-n2cc(C3=NCCS3)cn2)c1
4. Nc1c(C2=NCCS2)cnn1-c1ccc(F)cc1
5. Nc1c(C2=NCCS2)cnn1-c1ccccc1
6. Nc1c(C2=NCCS2)cnn1-c1ccc(Cl)c(Cl)c1

Key:
1: > 500 µM; 2: 187 µM; 3: 64.5 µM; 4: 483 µM; 5: 248 µM; 6: > 500 µM
